- EXPERIMENTAL_PROTOCOL: qHTS assay to identify small molecule antagonists of the thyroid receptor (TR) signaling pathway (AID 743065); note: nearly all actives have a fitted effect of over 55% in size
- ASSAY_CONDITIONS: GH3.TRE-Luc, T3-stimulated luciferase inhibition, 23.5 h; series mostly up to 70.3 µM
Inconclusive results are not listed. Calls of active or inactive are those of the source. Calls come from the whole dose curve; as a rule, active = well fitted inhibition curve with a large enough effect in the repeat runs; inconclusive = weak or mixed curves; inactive = no such curve, though single readings can be large or run the other way.
Labels: yes (1) for active, no (0) for inactive

                                   compound  group_label
0  CO/N=C(/C(=O)N[C@@H]1C(=O)N2C(C(=O)O)=C(Cn3nnc(C)n3)CS[C@H]12)c1csc(N)n1       no (0)
1                       CO[Si](CCCCl)(OC)OC       no (0)
2  NC(Cc1c[nH]c2ccccc12)C(=O)O (stereo not drawn)       no (0)
3                   O=c1[nH]c(=O)c2ccccc2o1       no (0)
4  C=CCOC(=O)c1ccc(C(=O)OCC=C)c(C(=O)OCC=C)c1       no (0)
5  Cc1ccc2c(c1)c1c3n2CCNC3CCC1 (stereo not drawn)      yes (1)
6                     NC(=O)NC(=O)Cc1ccccc1       no (0)
7      CCCCCC1CCCC(=O)O1 (stereo not drawn)       no (0)
